Entries and their inhibition in vivo at 80 mg/kg values follow.
Tested on: Rattus norvegicus
Assay: Antiinflammatory activity in Sprague-Dawley rat assessed as inhibition of carrageenan-induced paw edema at 80 mg/kg, po administered 30 mins prior to carrageenan challenge measured at 3 hrs by plethysmometer relative to meloxicam
Assay type: functional

chem smiles: Cc1nc2ccccc2c(=O)n1NC(=O)NC(C)(C)C
inhibition in vivo at 80 mg/kg / %: 82.5
//
chem smiles: Cc1nc2ccccc2c(=O)n1NC(=O)NC1CCCCC1
inhibition in vivo at 80 mg/kg / %: 88.6
//
chem smiles: O=C(NC1CCCCC1)Nn1c(CO[N+](=O)[O-])nc2ccccc2c1=O
inhibition in vivo at 80 mg/kg / %: 80.6
//
chem smiles: O=c1c2ccccc2nc(CO[N+](=O)[O-])n1NS(=O)(=O)c1ccccc1
inhibition in vivo at 80 mg/kg / %: 55
//
chem smiles: Cc1ccc(S(=O)(=O)Nn2c(CO[N+](=O)[O-])nc3ccccc3c2=O)cc1
inhibition in vivo at 80 mg/kg / %: 71.6
//
chem smiles: Cc1ccc(S(=O)(=O)Nn2c(C)nc3ccccc3c2=O)cc1
inhibition in vivo at 80 mg/kg / %: 83.9

###

System: Rattus norvegicus
Assay: Gastrointestinal toxicity in Wistar albino rat assessed as ulcer index at 10 mg/kg/day, po administered for 3 days measured after 2 hrs post last dose
Assay type: organism-based
Conditions: in vivo
// NB: equality with 0.6 counts as FALSE; only UI strictly below is TRUE

chem smiles: O=c1c2ccccc2nc(CO[N+](=O)[O-])n1NS(=O)(=O)c1ccccc1
discrete label: TRUE

chem smiles: CC(C)(C)NC(=O)Nn1c(CO[N+](=O)[O-])nc2ccccc2c1=O
discrete label: FALSE

chem smiles: Cc1ccc(S(=O)(=O)Nn2c(CO[N+](=O)[O-])nc3ccccc3c2=O)cc1
discrete label: FALSE

chem smiles: CC(=O)Nc1ccc(S(=O)(=O)Nn2c(CO[N+](=O)[O-])nc3ccccc3c2=O)cc1
discrete label: FALSE

chem smiles: O=C(NC1CCCCC1)Nn1c(CO[N+](=O)[O-])nc2ccccc2c1=O
discrete label: TRUE

###

Tested on: Rattus norvegicus
Experiment: Antiinflammatory activity in Sprague-Dawley rat assessed as inhibition of carrageenan-induced paw edema at 80 mg/kg, po administered 30 mins prior to carrageenan challenge measured at 1 hr by plethysmometer
Assay type: functional
inhibition in vivo at 80 mg/kg below 6% gives class 0; inhibition in vivo at 80 mg/kg at or above it gives class 1.

chem smiles: Cc1nc2ccccc2c(=O)n1NC(=S)Nc1ccccc1
discrete label: class 1
//
chem smiles: Cc1ccc(S(=O)(=O)Nn2c(C)nc3ccccc3c2=O)cc1
discrete label: class 0
//
chem smiles: CC(C)(C)NC(=O)Nn1c(CO[N+](=O)[O-])nc2ccccc2c1=O
discrete label: class 1
//
chem smiles: Cc1nc2ccccc2c(=O)n1NS(=O)(=O)c1ccccc1
discrete label: class 0
//
chem smiles: Cc1nc2ccccc2c(=O)n1NC(=O)NC1CCCCC1
discrete label: class 1

###

Species on record: Ovis aries
Test: Selectivity index, ratio of IC50 for ovine COX1 to IC50 for ovine COX2
// NB: equality with 5 counts as condition not met; only Ratio IC50 strictly below is condition met

chem smiles: Cc1ccc(S(=O)(=O)Nn2c(C)nc3ccccc3c2=O)cc1
discrete label: condition not met
//
chem smiles: CC(=O)Nc1ccc(S(=O)(=O)Nn2c(CO[N+](=O)[O-])nc3ccccc3c2=O)cc1
discrete label: condition not met
//
chem smiles: O=c1c2ccccc2nc(CO[N+](=O)[O-])n1NS(=O)(=O)c1ccccc1
discrete label: condition met
//
chem smiles: Cc1ccc(S(=O)(=O)Nn2c(CO[N+](=O)[O-])nc3ccccc3c2=O)cc1
discrete label: condition met
//
chem smiles: CC(C)(C)NC(=O)Nn1c(CO[N+](=O)[O-])nc2ccccc2c1=O
discrete label: condition met
//
chem smiles: Cc1nc2ccccc2c(=O)n1NC(=O)NC1CCCCC1
discrete label: condition met
//
chem smiles: Cc1nc2ccccc2c(=O)n1NC(=O)NC(C)(C)C
discrete label: condition not met
